# Tested on: Escherichia coli No. 29
# protocol.summary: Minimum growth inhibitory concentration, Escherichia coli No. 29
# Type: cell-based
# Set-up: unit not given here
reported.endpoint: Minimum Growth Inhibitory Concentration
The answer should be written as a number, with no unit following it.

Nc1nc(/C(=N/OCc2cc(=O)c(O)cn2O)C(=O)N[C@@H]2C(=O)N3C(C(=O)[O-])=C(CSc4cc[n+](CCO)cc4)CS[C@H]23)cs1 [Example 3]: 0.05

Query string: Given Nc1nc(/C(=N/OCc2cc(=O)c(O)cn2O)C(=O)N[C@@H]2C(=O)N3C(C(=O)[O-])=C(C[n+]4ccccc4)CS[C@H]23)cs1 [Example 14] , state its recorded Minimum Growth Inhibitory Concentration.
Result string: 0.10

###

# Tested on: Pseudomonas aeruginosa E-2
# protocol.summary: Minimum growth inhibitory concentration, Pseudomonas aeruginosa E-2
# Type: cell-based
# Parameters: unit not given here
# condition.summary: Pseudomonas aeruginosa E-2
Some compounds, each annotated with its measured Minimum Growth Inhibitory Concentration.
Answer field: number only, no words.

Nc1nc(/C(=N/OCc2cc(=O)c(O)c[nH]2)C(=O)N[C@@H]2C(=O)N3C(C(=O)[O-])=C(C[n+]4ccccc4)CS[C@H]23)cs1 [A, reference compound]: 3.13

Query string: Consider the compound shown here: Nc1nc(/C(=N/OCc2cc(=O)c(O)cn2O)C(=O)N[C@@H]2C(=O)N3C(C(=O)[O-])=C(C[n+]4ccccc4)CS[C@H]23)cs1 What is its recorded Minimum Growth Inhibitory Concentration?
Result string: 0.10

Query string: // lookup Minimum Growth Inhibitory Concentration for Cn1c(SCC2=C(C(=O)O)N3C(=O)[C@@H](NC(=O)/C(=N\OCc4cc(=O)c(O)cn4O)c4csc(N)n4)[C@H]3SC2)nnc(O)c1=O
Result string: 0.05

Query string: Look up Minimum Growth Inhibitory Concentration for this compound: C[n+]1ccc(SCC2=C(C(=O)[O-])N3C(=O)[C@@H](NC(=O)/C(=N\OCc4cc(=O)c(O)cn4O)c4csc(N)n4)[C@H]3SC2)cc1
Result string: 0.05
